- System: Collinsella aerofaciens
- Assay Name: growth AUC relative to DMSO control (median of replicates) (fraction); higher = more growth (less inhibition), active = hit call of the paper
- Experimental Conditions: 20 µM; 24 h
Cut-off 1 on growth AUC, inclusive. At or above means Yes; below means No.

- Compound: "COP(N)(=O)SC (stereo not drawn)"
  Classification: "Yes"
- Compound: "O=C(O)COc1ccccc1"
  Classification: "No"
- Compound: "CC(C1CC1)C(O)(Cn1cncn1)c1ccc(Cl)cc1 (mixture of isomers)"
  Classification: "No"
- Compound: "CC(C)OC(=O)C(O)(c1ccc(Br)cc1)c1ccc(Br)cc1"
  Classification: "No"
- Compound: "COc1cc(Cl)c(OC)cc1Cl"
  Classification: "Yes"

###

- Test system: Coprococcus comes
- Assay Name: growth AUC relative to DMSO control (median of replicates) (fraction); higher = more growth (less inhibition), active = hit call of the paper
- Experimental Conditions: 20 µM; 24 h
Here the recorded growth AUC is given for each entry.

- Compound: "O=C(O)C1(O)c2ccccc2-c2ccc(Cl)cc21 (configuration not stated)"
  growth AUC: 0.972
- Compound: "ClCC(Br)CBr (configuration not stated)"
  growth AUC: 1
- Compound: "C=CCN(CC=C)C(=O)C(Cl)Cl"
  growth AUC: 1
- Compound: "O=C(O)c1c(Cl)ccc2cc(Cl)cnc12"
  growth AUC: 1
- Compound: "CCOC(=O)CCN(Cc1ccccc1)SN(C)C(=O)O/N=C(/C)SC"
  growth AUC: 0.985
- Compound: "CCOP(=S)(OCC)SCCS(=O)(=O)CC"
  growth AUC: 1.02
- Compound: "O=C(O)c1ccc(=O)[nH]c1"
  growth AUC: 0.999

###

- Tested on: Escherichia coli ED1a
- Assay Name: growth AUC relative to DMSO control (median of replicates) (fraction); higher = more growth (less inhibition), active = hit call of the paper
- Experimental Conditions: 20 µM; 24 h
Cut-off 1 on growth AUC, inclusive. At or above means criterion met; below means criterion not met.

- Molecule: "CCN(C(=O)n1nnn(-c2ccccc2Cl)c1=O)C1CCCCC1"
  Measured On: "Escherichia coli ED1a"
  Classification: "criterion not met"
- Molecule: "Cc1ccc(-c2c(Cl)nc(C#N)n2S(=O)(=O)N(C)C)cc1"
  Measured On: "Escherichia coli ED1a"
  Classification: "criterion not met"
- Molecule: "CC(C)Oc1cc(-n2nc(C(C)(C)C)oc2=O)c(Cl)cc1Cl"
  Measured On: "Escherichia coli ED1a"
  Classification: "criterion not met"
- Molecule: "c1cc2ccc3cccc4ccc(c1)c2c34"
  Measured On: "Escherichia coli ED1a"
  Classification: "criterion not met"
- Molecule: "COP(=O)(OC)OC1=C(Cl)C2C=CCC12 (configuration not stated)"
  Measured On: "Escherichia coli ED1a"
  Classification: "criterion not met"
- Molecule: "CCNC(=O)NC(=O)/C(C#N)=N/OC"
  Measured On: "Escherichia coli ED1a"
  Classification: "criterion met"
- Molecule: "CCC(C)c1ccccc1OC(=O)NC (configuration not stated)"
  Measured On: "Escherichia coli ED1a"
  Classification: "criterion not met"
- Molecule: "N#Cc1nn(-c2c(Cl)cc(C(F)(F)F)cc2Cl)c(N)c1S(=O)(=O)C(F)(F)F"
  Measured On: "Escherichia coli ED1a"
  Classification: "criterion met"
- Molecule: "O.[Br-].[Br-].c1cc[n+]2c(c1)-c1cccc[n+]1CC2"
  Measured On: "Escherichia coli ED1a"
  Classification: "criterion met"
- Molecule: "CCNc1nc(Cl)nc(NCC)n1"
  Measured On: "Escherichia coli ED1a"
  Classification: "criterion met"
